Target: Cytochrome P450 2E1 (Homo sapiens, UniProt P05181); also: in other assays of this panel Not Active means under 50% inhibition at 10 µM
Sequence (P05181 whole entry): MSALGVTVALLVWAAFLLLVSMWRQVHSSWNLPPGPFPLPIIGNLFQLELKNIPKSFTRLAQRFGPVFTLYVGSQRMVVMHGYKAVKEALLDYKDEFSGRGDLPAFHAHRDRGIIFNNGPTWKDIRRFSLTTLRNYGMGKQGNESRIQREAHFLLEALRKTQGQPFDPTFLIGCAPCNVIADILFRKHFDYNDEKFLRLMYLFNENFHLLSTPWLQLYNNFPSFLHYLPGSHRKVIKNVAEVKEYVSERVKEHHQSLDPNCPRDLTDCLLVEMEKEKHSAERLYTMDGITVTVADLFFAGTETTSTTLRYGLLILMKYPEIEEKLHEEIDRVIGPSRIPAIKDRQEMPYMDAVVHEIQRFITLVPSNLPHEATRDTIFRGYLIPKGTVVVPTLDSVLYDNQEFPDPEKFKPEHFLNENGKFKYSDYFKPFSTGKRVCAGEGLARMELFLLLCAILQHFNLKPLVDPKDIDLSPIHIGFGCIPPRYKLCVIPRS
Conditions: bti-tn-5b1-4
TEST READOUT: Ki

See these solved cases before continuing.
COMPOUND	Ki
COc1ccc2[nH]c([S+]([O-])Cc3ncc(C)c(OC)c3C)nc2c1 (stereo not drawn)	Not Active
N[C@H](CSC(=S)NCc1ccccc1)C(=O)O	Not Active
Cc1cc2cc3c(C)cc(=O)oc3c(C)c2o1	Not Active
CCC1=C[C@@H]2CN(C1)Cc1c([nH]c3ccccc13)[C@@](C(=O)OC)(c1cc3c(cc1OC)N(C)[C@H]1[C@@](O)(C(=O)OC)[C@H](OC(C)=O)[C@]4(CC)C=CCN5CC[C@]31[C@@H]54)C2	Not Active
Nc1ccn([C@@H]2CS[C@H](CO)O2)c(=O)n1	Not Active

CC(=O)OCC(=O)[C@@]1(O)CC[C@H]2[C@@H]3CCC4=CC(=O)CC[C@]4(C)[C@H]3C(=O)C[C@@]21C [CORTISONE ACETATE] on Cytochrome P450 2E1 (Homo sapiens, UniProt P05181) gives Ki = Not Active

Record Cc1cccc(Nc2ccncc2S(=O)(=O)NC(=O)NC(C)C)c1 [TORSEMIDE] has Cytochrome P450 2E1 (Homo sapiens, UniProt P05181) Ki equal to Not Active

Observed Ki, Cytochrome P450 2E1 (Homo sapiens, UniProt P05181), O=c1ccc2ccccc2o1 : Not Active

---

Biological target: Thromboxane-A synthase (Homo sapiens, UniProt P24557);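 also: enzyme inhibition assay with PGH2 supplied as substrate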; also: in other assays of this panel Not Active means under 50% inhibition at 10 µM
Sequence (P24557 whole entry): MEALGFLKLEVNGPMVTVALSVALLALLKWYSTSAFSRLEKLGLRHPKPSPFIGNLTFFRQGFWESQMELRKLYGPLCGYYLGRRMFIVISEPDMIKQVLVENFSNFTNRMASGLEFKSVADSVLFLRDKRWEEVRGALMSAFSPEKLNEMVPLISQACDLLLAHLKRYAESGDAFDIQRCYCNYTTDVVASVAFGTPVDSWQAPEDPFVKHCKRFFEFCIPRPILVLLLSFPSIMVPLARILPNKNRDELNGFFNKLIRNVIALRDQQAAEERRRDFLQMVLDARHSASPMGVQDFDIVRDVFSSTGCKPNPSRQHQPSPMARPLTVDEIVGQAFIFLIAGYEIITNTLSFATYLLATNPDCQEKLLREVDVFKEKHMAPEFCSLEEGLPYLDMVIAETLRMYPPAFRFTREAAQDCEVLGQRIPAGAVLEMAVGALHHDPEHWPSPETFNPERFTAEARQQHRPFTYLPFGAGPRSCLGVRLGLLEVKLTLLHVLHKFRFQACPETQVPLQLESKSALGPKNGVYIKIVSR
Test: biochemical
Format: tissue-based, Platelet
Settings: read-out: IC50
TEST READOUT: IC50 (nM)
Lab book: enter the figure in nM, no units written.

The cases that follow already have their IC50 on record.
MOLECULE	STUDY TARGET	IC50, nM
CC[C@]1(O)C[C@@H]2CN(CCc3c([nH]c4ccccc34)[C@@](C(=O)OC)(c3cc4c(cc3OC)N(C)[C@H]3[C@@](O)(C(=O)OC)[C@H](OC(C)=O)[C@]5(CC)C=CCN6CC[C@]43[C@@H]65)C2)C1	Thromboxane-A synthase (Homo sapiens, UniProt P24557)	1870
CC(=O)N1CCN(c2ccc(OCC3COC(Cn4ccnc4)(c4ccc(Cl)cc4Cl)O3)cc2)CC1 (stereo not drawn)	Thromboxane-A synthase (Homo sapiens, UniProt P24557)	2170

Please look at the following molecule next.
Notebook: CC/C(=C(/CC)c1ccc(O)cc1)c1ccc(O)cc1 , IC50 read as 4360

---

Target: Histamine H2 receptor (Homo sapiens); also: in other assays of this panel Not Active means under 50% inhibition at 10 µM
Sequence (P25021 whole entry): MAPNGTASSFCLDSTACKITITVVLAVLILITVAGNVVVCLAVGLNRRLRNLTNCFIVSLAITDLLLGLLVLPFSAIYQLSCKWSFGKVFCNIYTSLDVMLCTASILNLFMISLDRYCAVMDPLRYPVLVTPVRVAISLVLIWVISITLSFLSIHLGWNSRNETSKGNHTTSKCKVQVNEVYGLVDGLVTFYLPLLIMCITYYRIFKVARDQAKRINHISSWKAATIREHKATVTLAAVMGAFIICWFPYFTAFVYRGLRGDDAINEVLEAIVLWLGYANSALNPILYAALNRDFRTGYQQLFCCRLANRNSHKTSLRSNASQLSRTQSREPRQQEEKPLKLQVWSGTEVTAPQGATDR
Type: cell membranes, CHO-K1, Membrane
Conditions: cho-k1
TEST READOUT: IC50

MOLECULE	STUDY TARGET	RESULT
COc1ccc2c(c1)[C@]13CCCC[C@@H]1[C@H](C2)N(C)CC3	Histamine H2 receptor (Homo sapiens)	Not Active
CO[C@H]1/C=C/O[C@@]2(C)Oc3c(C)c(O)c4c(c3C2=O)C2=NC3(CCN(CC(C)C)CC3)NC2=C(NC(=O)/C(C)=C\C=C\[C@H](C)[C@H](O)[C@@H](C)[C@@H](O)[C@@H](C)[C@H](OC(C)=O)[C@@H]1C)C4=O	Histamine H2 receptor (Homo sapiens)	Not Active
NC(=O)NO [HYDROXYUREA]	Histamine H2 receptor (Homo sapiens)	Not Active

---

Molecular target: Nitric oxide synthase 1 (Rattus norvegicus); also: in other assays of this panel Not Active means under 50% inhibition at 10 µM
Sequence (P29476 whole entry): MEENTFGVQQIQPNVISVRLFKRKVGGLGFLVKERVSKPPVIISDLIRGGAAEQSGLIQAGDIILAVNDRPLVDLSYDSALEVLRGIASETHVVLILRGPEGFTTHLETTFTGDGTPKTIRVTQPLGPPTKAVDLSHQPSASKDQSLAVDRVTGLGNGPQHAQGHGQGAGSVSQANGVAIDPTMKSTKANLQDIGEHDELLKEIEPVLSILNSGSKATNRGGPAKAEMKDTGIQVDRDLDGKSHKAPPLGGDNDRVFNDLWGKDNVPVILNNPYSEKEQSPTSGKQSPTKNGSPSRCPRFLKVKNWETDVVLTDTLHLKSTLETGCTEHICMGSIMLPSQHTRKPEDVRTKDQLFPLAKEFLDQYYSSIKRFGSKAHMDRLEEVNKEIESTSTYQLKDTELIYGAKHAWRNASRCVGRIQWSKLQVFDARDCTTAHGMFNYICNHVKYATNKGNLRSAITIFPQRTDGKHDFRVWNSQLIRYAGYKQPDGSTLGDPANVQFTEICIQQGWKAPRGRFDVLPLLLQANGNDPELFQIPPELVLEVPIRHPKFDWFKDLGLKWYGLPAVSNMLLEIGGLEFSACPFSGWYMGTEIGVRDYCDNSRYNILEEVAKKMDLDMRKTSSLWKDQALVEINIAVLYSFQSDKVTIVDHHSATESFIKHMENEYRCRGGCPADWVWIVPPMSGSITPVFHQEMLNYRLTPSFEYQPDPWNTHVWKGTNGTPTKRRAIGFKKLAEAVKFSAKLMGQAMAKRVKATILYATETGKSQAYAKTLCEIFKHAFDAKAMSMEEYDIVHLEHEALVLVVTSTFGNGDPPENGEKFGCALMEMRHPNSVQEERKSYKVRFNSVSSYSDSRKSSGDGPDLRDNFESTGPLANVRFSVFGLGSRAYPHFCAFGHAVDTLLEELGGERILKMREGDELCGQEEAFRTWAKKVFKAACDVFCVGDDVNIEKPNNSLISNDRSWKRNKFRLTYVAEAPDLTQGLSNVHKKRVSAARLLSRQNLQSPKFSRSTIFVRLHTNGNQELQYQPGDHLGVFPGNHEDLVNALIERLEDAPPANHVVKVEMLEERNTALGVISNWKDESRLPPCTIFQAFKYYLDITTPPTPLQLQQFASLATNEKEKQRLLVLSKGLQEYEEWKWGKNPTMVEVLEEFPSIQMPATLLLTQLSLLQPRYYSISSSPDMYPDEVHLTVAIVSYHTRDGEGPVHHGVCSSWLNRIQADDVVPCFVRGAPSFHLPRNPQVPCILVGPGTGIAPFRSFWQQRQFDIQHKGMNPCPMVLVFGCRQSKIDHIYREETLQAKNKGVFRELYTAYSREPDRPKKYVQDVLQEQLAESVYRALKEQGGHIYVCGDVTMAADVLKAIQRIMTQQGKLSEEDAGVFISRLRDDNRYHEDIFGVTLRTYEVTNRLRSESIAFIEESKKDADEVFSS
Type: tissue-based, Cerebellum
TEST READOUT: IC50

                                   molecule  test_readout      result
0  CC(=O)Nc1c(I)c(NC(C)=O)c(I)c(C(=O)O)c1I [DIATRIZOIC ACID]          IC50  Not Active
1  COc1cccc2c1C(=O)c1c(O)c3c(c(O)c1C2=O)C[C@@](O)(C(=O)CO)C[C@@H]3O[C@H]1C[C@H](N)[C@@H](O)[C@H](C)O1 [EPIRUBICIN]          IC50  Not Active
2  Cc1cc2cc3c(C)cc(=O)oc3c(C)c2o1 [TRIOXSALEN]          IC50  Not Active
3  CCCCN1CCCCC1C(=O)Nc1c(C)cccc1C.Cl (centres undefined) [BUPIVACAINE HYDROCHLORIDE]          IC50  Not Active

---

Target: C-C chemokine receptor type 4 (Homo sapiens, UniProt P51679); also: in other assays of this panel Not Active means under 50% inhibition at 10 µM
Sequence (P51679 whole entry): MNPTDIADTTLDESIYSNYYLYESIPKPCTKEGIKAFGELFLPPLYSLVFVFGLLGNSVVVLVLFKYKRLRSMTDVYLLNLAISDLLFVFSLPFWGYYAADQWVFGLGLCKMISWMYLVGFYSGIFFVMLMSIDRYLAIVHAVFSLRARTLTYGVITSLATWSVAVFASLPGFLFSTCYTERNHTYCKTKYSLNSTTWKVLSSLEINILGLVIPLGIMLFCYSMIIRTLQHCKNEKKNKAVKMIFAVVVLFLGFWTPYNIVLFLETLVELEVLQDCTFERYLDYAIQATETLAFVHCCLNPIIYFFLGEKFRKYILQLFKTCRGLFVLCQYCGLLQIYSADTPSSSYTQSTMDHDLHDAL
Format: cell membranes, Membrane
Conditions: chem-1

MOLECULE	IC50
CC(=O)N[C@@H]1[C@H](Oc2c3cc4cc2Oc2ccc(cc2Cl)[C@@H](O[C@@H]2O[C@@H](CO)[C@@H](O)[C@H](O)[C@@H]2NC(C)=O)[C@@H]2NC(=O)[C@H](NC(=O)[C@@H]4NC(=O)[C@H]4NC(=O)[C@@H](Cc5ccc(c(Cl)c5)O3)NC(=O)[C@H](N)c3ccc(O)c(c3)Oc3cc(O)cc4c3)c3ccc(O)c(c3)-c3c(O[C@H]4O[C@H](CO)[C@@H](O)[C@@H](O)[C@@H]4O)cc(O)cc3[C@@H](C(=O)O)NC2=O)O[C@@H](CO)[C@@H](O)[C@@H]1O	Not Active
COc1cccc2c1C(=O)c1c(O)c3c(c(O)c1C2=O)C[C@@](O)(C(=O)CO)C[C@@H]3O[C@H]1C[C@H](N)[C@H](O)[C@H](C)O1 [DOXORUBICIN]	Not Active
O=C1CC2(CCCC2)CC(=O)N1CCCCN1CCN(c2ncccn2)CC1 [BUSPIRONE]	Not Active

---

Molecular target: Amine oxidase [flavin-containing] A (Homo sapiens, UniProt P21397)
Sequence (P21397 whole entry): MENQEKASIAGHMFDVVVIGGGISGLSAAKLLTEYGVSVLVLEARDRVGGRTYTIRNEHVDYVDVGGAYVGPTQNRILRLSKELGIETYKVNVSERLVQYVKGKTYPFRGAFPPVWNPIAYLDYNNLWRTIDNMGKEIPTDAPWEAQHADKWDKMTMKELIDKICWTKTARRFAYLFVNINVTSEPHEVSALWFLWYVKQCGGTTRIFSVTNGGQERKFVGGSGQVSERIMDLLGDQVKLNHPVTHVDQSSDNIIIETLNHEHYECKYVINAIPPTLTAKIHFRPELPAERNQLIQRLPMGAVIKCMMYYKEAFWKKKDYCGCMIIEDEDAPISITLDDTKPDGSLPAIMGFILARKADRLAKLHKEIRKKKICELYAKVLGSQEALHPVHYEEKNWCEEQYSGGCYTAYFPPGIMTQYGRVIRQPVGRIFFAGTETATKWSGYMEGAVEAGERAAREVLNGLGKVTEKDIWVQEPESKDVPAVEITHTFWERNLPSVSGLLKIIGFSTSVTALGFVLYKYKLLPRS
Assay: DRUGMATRIX: Monoamine Oxidase MAO-A enzyme inhibition (substrate: Kynuramine)
Parameters: species or system BTI-TN-5B1-4
Details: bti-tn-5b1-4; Not Active = under 50% inhibition at 10 µM
TEST READOUT: IC50

In [3]: df
Out[3]:
                                   compound                              study_target      result
0  CCc1c2c(nc3ccc(OC(=O)N4CCC(N5CCCCC5)CC4)cc13)-c1cc3c(c(=O)n1C2)COC(=O)[C@]3(O)CC [IRINOTECAN]  Amine oxidase [flavin-containing] A (Homo sapiens, UniProt P21397)  Not Active
1  C[C@]12CC[C@@H]3c4ccc(O)cc4CC[C@H]3[C@@H]1CC[C@@H]2O [ESTRADIOL]  Amine oxidase [flavin-containing] A (Homo sapiens, UniProt P21397)  Not Active
2  CC1(C)O[C@@H]2C[C@H]3[C@@H]4C[C@H](F)C5=CC(=O)C=C[C@]5(C)[C@H]4[C@@H](O)C[C@]3(C)[C@]2(C(=O)CO)O1 [FLUNISOLIDE]  Amine oxidase [flavin-containing] A (Homo sapiens, UniProt P21397)  Not Active

---

Target: Endothelin-1 receptor (Homo sapiens); also: in other assays of this panel Not Active means under 50% inhibition at 10 µM
Sequence (P25101 whole entry): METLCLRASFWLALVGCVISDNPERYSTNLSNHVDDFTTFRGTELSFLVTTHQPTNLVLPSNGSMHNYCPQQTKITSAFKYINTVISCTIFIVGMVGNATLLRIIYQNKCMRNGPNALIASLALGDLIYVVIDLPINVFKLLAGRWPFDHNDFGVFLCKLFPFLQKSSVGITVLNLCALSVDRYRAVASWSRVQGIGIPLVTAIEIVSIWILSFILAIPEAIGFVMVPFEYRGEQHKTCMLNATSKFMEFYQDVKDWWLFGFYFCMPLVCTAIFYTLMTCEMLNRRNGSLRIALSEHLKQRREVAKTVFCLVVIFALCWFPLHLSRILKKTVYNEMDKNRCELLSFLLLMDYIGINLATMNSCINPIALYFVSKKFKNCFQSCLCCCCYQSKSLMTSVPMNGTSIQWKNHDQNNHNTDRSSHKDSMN
Format: cell membranes, Membrane
Details: cho-k1
TEST READOUT: IC50

Would you please look over these solved cases?
MOLECULE	STUDY TARGET	TEST READOUT	RESULT
Clc1ccc2c(c1)C(N1CCNCC1)=Nc1ccccc1O2	Endothelin-1 receptor (Homo sapiens)	IC50	Not Active
O=C(N[C@H](CO)[C@H](O)c1ccc([N+](=O)[O-])cc1)C(Cl)Cl	Endothelin-1 receptor (Homo sapiens)	IC50	Not Active
COc1cccc2c1C(=O)c1c(O)c3c(c(O)c1C2=O)C[C@@](O)(C(=O)CO)C[C@@H]3O[C@H]1C[C@H](N)[C@H](O)[C@H](C)O1	Endothelin-1 receptor (Homo sapiens)	IC50	Not Active
CCN(CC)CCOC(=O)c1ccc(N)cc1	Endothelin-1 receptor (Homo sapiens)	IC50	Not Active
CC1(C)O[C@@H]2C[C@H]3[C@@H]4C[C@H](F)C5=CC(=O)C=C[C@]5(C)[C@@]4(F)[C@@H](O)C[C@]3(C)[C@]2(C(=O)CO)O1 [FLUOCINOLONE ACETONIDE]	Endothelin-1 receptor (Homo sapiens)	IC50	Not Active
[Cl-].[Cl-].[Zn+2] [ZINC CHLORIDE]	Endothelin-1 receptor (Homo sapiens)	IC50	Not Active

With Endothelin-1 receptor (Homo sapiens) as the test system, [H]/N=C(/N)N[C@H]1[C@H](O)[C@@H](O)[C@H](O[C@@H]2O[C@@H](C)[C@](O)(C=O)[C@H]2O[C@@H]2O[C@@H](CO)[C@H](O)[C@@H](O)[C@@H]2NC)[C@@H](N/C(N)=N\[H])[C@@H]1O showed IC50 of Not Active
